Experiment: Chemical stability of compound in distilled water assessed as compound remaining at pH 5 at 100 ug/ml after 8 hrs
Format: physicochemical
Conditions: buffer, pH 5, 8 h
A collection of compounds and their measured Stability
Lab book: enter the figure in %, no units written.

Given `CC(C)[C@H](N)C(=O)OC[C@H]1CN(c2ccc(-c3ccc(-c4nnn(C)n4)nc3)c(F)c2)C(=O)O1.O=C(O)C(F)(F)F` , state its recorded Stability.
97.3

Given `C[C@H](N)C(=O)OC[C@H]1CN(c2ccc(-c3ccc(-c4nnn(C)n4)nc3)c(F)c2)C(=O)O1.Cl` , state its recorded Stability.
88.1

Given `Cn1nnc(-c2ccc(-c3ccc(N4C[C@H](COC(=O)CCN)OC4=O)cc3F)cn2)n1.O=C(O)C(F)(F)F` , state its recorded Stability.
99.5

Given `CC(C)[C@H](N)C(=O)OC[C@H]1CN(c2ccc(-c3ccc(-c4nnn(C)n4)nc3)c(F)c2)C(=O)O1.Cl` , state its recorded Stability.
97.7

Given `Cl.Cn1nnc(-c2ccc(-c3ccc(N4C[C@H](COC(=O)CCN)OC4=O)cc3F)cn2)n1` , state its recorded Stability.
94.9

Given `Cn1nnc(-c2ccc(-c3ccc(N4C[C@H](COC(=O)CN)OC4=O)cc3F)cn2)n1.O=C(O)C(F)(F)F` , state its recorded Stability.
92.7

Given `C[C@H](N)C(=O)OC[C@H]1CN(c2ccc(-c3ccc(-c4nnn(C)n4)nc3)c(F)c2)C(=O)O1.O=C(O)C(F)(F)F` , state its recorded Stability.
87.8

Given `Cl.Cn1nnc(-c2ccc(-c3ccc(N4C[C@H](COC(=O)CN)OC4=O)cc3F)cn2)n1` , state its recorded Stability.
93.3

Given `Cn1nnc(-c2ccc(-c3ccc(N4C[C@H](COC(=O)[C@@H]5CCCN5)OC4=O)cc3F)cn2)n1.O=C(O)C(F)(F)F` , state its recorded Stability.
65.2

###

Assay: Tmax in ICR mouse at 10 mg/kg, po by LC/MS/MS analysis
Assay type: ADME, organism-based
Design: dose 10 mg/kg, route oral
Details: in vivo
measured attribute: Tmax
Remember to quote the unit after the number.

Given Cn1nnc(-c2ccc(-c3ccc(N4C[C@H](CO)OC4=O)cc3F)cn2)n1 [TEDIZOLID] , state its recorded Tmax.
2 h

###

Tested on: Haemophilus influenzae
Test: Antibacterial activity against Haemophilus influenzae by agar dilution method
Format: functional
A collection of molecules and their measured MIC
Lab book: enter the figure in µg/mL, no units written.

Below, 2 molecules whose answers are already recorded.
Cn1nnc(-c2ccc(-c3ccc(N4C[C@H](Cn5ccnn5)OC4=O)cc3F)cn2)n1 ... 2
Cc1nnc(-c2ccc(-c3ccc(N4C[C@H](Cn5ccnn5)OC4=O)cc3F)cn2)o1 ... 2

Note: attention shifts to another entry.
Given `Cn1nnc(-c2ccc(-c3ccc(N4C[C@H](CF)OC4=O)cc3F)cn2)n1` , state its recorded MIC.
64

###

Assay: Half life in ICR mouse at 10 mg/kg, po by LC/MS/MS analysis
Assay type: ADME, organism-based
Design: dose 10 mg/kg, route oral
Details: in vivo
measured attribute: half-life (min)
Lab book: enter the figure in min, no units written.

Given `Cn1nnc(-c2ccc(-c3ccc(N4C[C@H](CO)OC4=O)cc3F)cn2)n1` , state its recorded half-life.
187

###

Tested on: Staphylococcus aureus
Test: Antibacterial activity against methicillin-resistant Staphylococcus aureus by agar dilution method
Assay type: functional
measured attribute: log10(MIC) (log10 of the value in µg/mL)
All values: log10 MIC [µg/mL].

Below, 2 compounds whose answers are already recorded.
Cn1nnc(-c2ccc(-c3ccc(N4C[C@H](COc5ccon5)OC4=O)cc3F)cn2)n1 ... -0.30
CNC[C@H]1CN(c2ccc(-c3ccc(-c4nnn(C)n4)nc3)c(F)c2)C(=O)O1 ... 0.60

Given `Cn1nnc(-c2ccc(-c3ccc(N4C[C@H](CNC(=O)c5ccco5)OC4=O)cc3F)cn2)n1` , state its recorded log10(MIC).
0.00

Given `CC(=O)NC[C@H]1CN(c2ccc(-c3ccc(-c4nnnn4C)nc3)c(F)c2)C(=O)O1` , state its recorded log10(MIC).
-0.11
